Molecular target: Cytochrome P450 2C9 (Homo sapiens, UniProt P11712)
Sequence (P11712 whole entry): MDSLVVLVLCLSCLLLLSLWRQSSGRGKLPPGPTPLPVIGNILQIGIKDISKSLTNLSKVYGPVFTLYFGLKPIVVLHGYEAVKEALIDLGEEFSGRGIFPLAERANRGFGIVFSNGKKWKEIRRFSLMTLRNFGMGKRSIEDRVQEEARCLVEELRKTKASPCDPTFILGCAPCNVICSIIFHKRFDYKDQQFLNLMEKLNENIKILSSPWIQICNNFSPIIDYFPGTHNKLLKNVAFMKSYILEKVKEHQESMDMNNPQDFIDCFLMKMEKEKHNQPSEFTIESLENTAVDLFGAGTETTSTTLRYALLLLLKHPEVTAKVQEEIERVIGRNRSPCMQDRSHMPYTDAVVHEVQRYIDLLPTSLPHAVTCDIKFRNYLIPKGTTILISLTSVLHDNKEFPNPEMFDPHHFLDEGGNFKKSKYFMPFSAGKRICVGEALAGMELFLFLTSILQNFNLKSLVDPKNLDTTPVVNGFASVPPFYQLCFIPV

| smiles.structure | IC50 |
| --- | --- |
| CC[C@@](C)(Cc1ccc(OCCCOc2ccc(CC(F)(F)F)cc2Cl)cc1)C(=O)O | < 50 nM |
